Each recorded value in this set is attributed to patent US20240391896A1.

Target: BCL9/β-catenin (Homo sapiens, UniProt P35222)
Assay: FP (BCL-9 avidity) fluorescence polarization competition assay with beta-catenin and FAP-Bcl9 tracer
Assay type: binding
Conditions: Table 2, FP (BCL-9 affinity); read-out: FP
Reported values of IC50 for individual entries
Give the value in µM but do not write µM after it.

Compound | Experimental System | Quantity Unit | Observed Result
CC(C)(Oc1cccc(N2CC(C(=O)N(Cc3ccc(-c4ccccc4)cc3)C3CC3)CC(c3ccccc3)C2)c1)C(=O)N1CCNCC1 (racemic) | BCL9/β-catenin (Homo sapiens, UniProt P35222) | µM | 6.2

Query compound follows.
Q. Look up IC50: CC(C)(Oc1cccc(N2CC(C(=O)N(Cc3ccc(C4=CCCCC4)cc3)C3CC3)CC(c3ccccc3)C2)c1)C(=O)N1CCNCC1 (racemic)
A. 7.75

* * *

Tested on: HCT116 cells
Assay: CCK8 cell viability assay in HCT116 cells
Format: cell-based
Conditions: Homo sapiens, HCT-116; Table 2, HCT116 cells, 24 hours
Observable: pIC50
pIC50 field: float, defined as -log10 of concentration (mol/L).

Below, each entry is followed by its recorded pIC50 result.
Structure Smiles | Observed Result
CC(C)(Oc1cccc(N2CCC[C@@H](NC(=O)N(Cc3ccc(-c4cn[nH]c4)cc3)C3CC3)C2)c1)C(=O)NCCN | 5.46
CC(C)(Oc1cccc(N2CCC[C@@H](C(=O)N(Cc3ccc(-c4cn[nH]c4)cc3)C3CC3)C2)c1Cl)C(=O)N1CCNCC1 | 5.98

Query compound follows.
Q. Look up pIC50: `CC(C)(Nc1cccc(N2CCC[C@@H](C(=O)N(Cc3ccc(-c4cn[nH]c4)cc3)C3CC3)C2)c1)C(=O)N1CCNCC1`
A. 5.62

* * *

Reported values of IC50 for individual entries
System: HCT116 cells
Assay: CCK8 cell viability assay in HCT116 cells
Assay type: cell-based
Settings: Homo sapiens, HCT-116; Table 2, HCT116 cells, 24 hours

Below, each entry is followed by its recorded IC50 result.
Compound | IC50
CC(C)(Oc1cccc(N2CC(C(=O)N(Cc3ccc(C4=CCCCC4)cc3)C3CC3)CC(c3ccccc3)C2)c1)C(=O)N1CCNCC1 (racemic) | 10 to 20 µM
CC(C)C1CC=C(c2ccc(CN(C(=O)C3CC(c4ccccc4)CN(c4cccc(OC(C)(C)C(=O)N5CCNCC5)c4)C3)C3CC3)cc2)CC1 (racemic) | 10 to 50 µM
CC(C)(Oc1cccc(N2CC(C(=O)N(Cc3ccc(-c4cn[nH]c4)cc3)C3CC3)CC(c3ccccc3)C2)c1)C(=O)N1CCNCC1 (stereo not drawn) | 10 to 50 µM
CC(C)(Oc1cccc(N2CC(C(=O)N(Cc3ccc(-c4cn[nH]c4)cc3)C3CC3)CC(C3CCCCC3)C2)c1)C(=O)N1CCNCC1 (stereo not drawn) | 10 to 50 µM
CC(C)(Oc1cccc(N2CC(C(=O)N(Cc3ccc(-c4ccccc4)cc3)C3CC3)CC(c3ccccc3)C2)c1)C(=O)N1CCNCC1 (racemic) | 10 to 20 µM

Query compound follows.
Q. Look up IC50: `CC(C)(Oc1cccc(N2CCC[C@@H](C(=O)N(Cc3ccc(-c4cn[nH]c4)c(Cl)c3)C3CC3)C2)c1)C(=O)N1CCNCC1`
A. 10 to 50 µM

* * *

Biological target: BCL9/β-catenin (Homo sapiens)
Test: FP (BCL-9 avidity) fluorescence polarization competition assay with beta-catenin and FAP-Bcl9 tracer
Type: binding
Conditions: Table 1.1, compounds 1-6; read-out: BCL-9 avidity FP IC50
Observable: pIC50
pIC50 field: float, defined as -log10 of concentration (mol/L).

Below, each entry is followed by its recorded pIC50 result.
Compound | Observed Result
CC(C)(Oc1cccc(N2CC(C(=O)N(Cc3ccc(C4=CCCCC4)cc3)C3CC3)CC(c3ccccc3)C2)c1)C(=O)N1CCNCC1 (racemic) | 5.11
CC(C)(Oc1cccc(N2CC(C(=O)N(Cc3ccc(-c4c[nH]c5ncccc45)cc3)C3CC3)CC(c3ccccc3)C2)c1)C(=O)N1CCNCC1 (racemic) | 5.56

Query compound follows.
Q. Look up pIC50: CC(C)(Oc1cccc(N2CC(C(=O)N(Cc3ccc(-c4ccccc4)cc3)C3CC3)CC(c3ccccc3)C2)c1)C(=O)N1CCNCC1 (racemic)
A. 5.65

* * *

Tested on: Human AXIN2
Test: qPCR of AXIN2 expression in HCT116 cells
Type: cell-based
Conditions: HCT-116, Table 2, HCT116 cells, AXIN2 vs β-actin, 24 hours
pIC50: −log10 of the molar value.
Reported values of pIC50 for individual entries

Below, each entry is followed by its recorded pIC50 result.
Molecule | Experimental System | pIC50
CC(C)(Oc1cccc(N2CCC[C@@H](C(=O)N(Cc3ccc(-c4cn[nH]c4)cc3)C3CC3)C2)c1Cl)C(=O)N1CCNCC1 | Human AXIN2 | 5.84
CC(C)(Oc1cccc(N2CCC[C@@H](C(=O)N(Cc3ccc(-c4ccccc4)c(Cl)c3)C3CC3)C2)c1)C(=O)N1CCNCC1 | Human AXIN2 | 4.30 to 5.00

Q. Look up pIC50: CC(C)C1CC=C(c2ccc(CN(C(=O)C3CC(c4ccccc4)CN(c4cccc(OC(C)(C)C(=O)N5CCNCC5)c4)C3)C3CC3)cc2)CC1 (racemic)
A. 4.30 to 5.00

Q. Look up pIC50: `CC(C)(Oc1cccc(N2CCC[C@@H](NC(=O)N(Cc3ccc(-c4cn[nH]c4)cc3)C3CC3)C2)c1)C(=O)NCCCN`
A. 5.21

Q. Look up pIC50: `CC(C)(Oc1cccc(N2CCC[C@@H](NC(=O)N(Cc3ccc(-c4cn[nH]c4)cc3)C3CC3)C2)c1)C(=O)N1CCNCC1`
A. 5.33

Q. Look up pIC50: `CC(C)(Nc1cccc(N2CCC[C@@H](C(=O)N(Cc3ccc(-c4cn[nH]c4)cc3)C3CC3)C2)c1)C(=O)N1CCNCC1`
A. 4.70 to 5.00

Q. Look up pIC50: `CC(C)(Oc1ccc(Cl)c(N2CCC[C@@H](C(=O)N(Cc3ccc(-c4c[nH]c5ncccc45)cc3)C3CC3)C2)c1)C(=O)N1CCNCC1`
A. 4.70 to 5.00

Q. Look up pIC50: CC(C)(Oc1cccc(N2CC(C(=O)N(Cc3ccc(-c4c[nH]c5ncccc45)cc3)C3CC3)CC(c3ccccc3)C2)c1)C(=O)N1CCNCC1 (racemic)
A. 4.70 to 5.00

Q. Look up pIC50: `CN(c1cccc(N2CCC[C@@H](C(=O)N(Cc3ccc(-c4cn[nH]c4)cc3)C3CC3)C2)c1)C(C)(C)C(=O)N1CCNCC1`
A. 4.70 to 5.00

Q. Look up pIC50: CC(C)(Oc1cccc(N2CC(C(=O)N(Cc3ccc(-c4cn[nH]c4)cc3)C3CC3)CC(c3ccccc3)C2)c1)C(=O)N1CCNCC1 (stereo not shown)
A. 4.70 to 5.00

* * *

Target: BCL9/β-catenin (Homo sapiens, UniProt P35222)
Sequence (P35222 1-781): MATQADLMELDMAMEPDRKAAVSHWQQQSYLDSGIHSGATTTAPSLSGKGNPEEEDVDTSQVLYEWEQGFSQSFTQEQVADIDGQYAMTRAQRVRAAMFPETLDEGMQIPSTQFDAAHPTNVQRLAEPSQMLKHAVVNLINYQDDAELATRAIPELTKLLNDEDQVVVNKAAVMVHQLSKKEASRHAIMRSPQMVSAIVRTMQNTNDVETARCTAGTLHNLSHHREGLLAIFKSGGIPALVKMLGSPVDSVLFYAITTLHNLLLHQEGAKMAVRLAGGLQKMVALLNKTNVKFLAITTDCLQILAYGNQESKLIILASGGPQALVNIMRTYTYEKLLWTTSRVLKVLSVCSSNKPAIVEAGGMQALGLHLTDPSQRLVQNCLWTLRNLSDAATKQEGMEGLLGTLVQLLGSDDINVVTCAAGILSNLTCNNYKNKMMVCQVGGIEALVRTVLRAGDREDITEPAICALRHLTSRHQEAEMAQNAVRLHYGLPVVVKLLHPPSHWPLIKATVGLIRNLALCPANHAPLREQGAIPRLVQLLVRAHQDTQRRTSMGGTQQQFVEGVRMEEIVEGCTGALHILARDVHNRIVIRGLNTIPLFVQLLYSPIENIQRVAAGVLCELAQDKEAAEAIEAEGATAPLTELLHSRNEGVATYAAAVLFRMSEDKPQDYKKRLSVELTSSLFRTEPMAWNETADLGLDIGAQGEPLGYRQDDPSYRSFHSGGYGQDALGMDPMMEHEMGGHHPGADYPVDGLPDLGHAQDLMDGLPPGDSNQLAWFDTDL
Experiment: FP (BCL-9 avidity) fluorescence polarization competition assay with beta-catenin and FAP-Bcl9 tracer
Type: binding
Conditions: Table 2, FP (BCL-9 affinity); read-out: FP
Reported values of IC50 for individual entries

Below, each entry is followed by its recorded IC50 result.
Compound | IC50
CC(C)C1CC=C(c2ccc(CN(C(=O)C3CC(c4ccccc4)CN(c4cccc(OC(C)(C)C(=O)N5CCNCC5)c4)C3)C3CC3)cc2)CC1 (racemic) | 10 to 50 µM
CC(C)(Oc1ccc(Cl)c(N2CCC[C@@H](C(=O)N(Cc3ccc(C4=CCCCC4)cc3)C3CC3)C2)c1)C(=O)N1CCNCC1 | 2.7 µM
CC(C)(Oc1cccc(N2CC(C(=O)N(Cc3ccc(-c4c[nH]c5ncccc45)cc3)C3CC3)CC(c3ccccc3)C2)c1)C(=O)N1CCNCC1 (racemic) | 2.76 µM
CC(C)(Oc1cccc(N2CCC[C@@H](C(=O)N(Cc3ccc(-c4ccccc4)c(Cl)c3)C3CC3)C2)c1)C(=O)N1CCNCC1 | 10 to 50 µM
CC(C)(Oc1cccc(N2CCC[C@@H](NC(=O)N(Cc3ccc(-c4cn[nH]c4)cc3)C3CC3)C2)c1)C(=O)NCCN | 10 to 20 µM
CC(C)(Oc1cccc(N2CCC[C@@H](C(=O)N(Cc3ccc(-c4cn[nH]c4)cc3)C3CC3)C2)c1Cl)C(=O)N1CCNCC1 | 3.15 µM

Query compound follows.
Q. Look up IC50: `CN(c1cccc(N2CCC[C@@H](C(=O)N(Cc3ccc(-c4cn[nH]c4)cc3)C3CC3)C2)c1)C(C)(C)C(=O)N1CCNCC1`
A. 10 to 20 µM
